# METHOD: Toxicity in AB zebrafish embryo assessed as percentage of embryos alive at 10 uM measured at 120 hrs post fertilization by dissecting light microscopic analysis relative to DMF
# Type: organism-based, Danio rerio
# RUN_PARAMETERS: read-out: Activity
EXPERIMENTAL_READOUT: survival at 120 h, 10 µM (%)
Use % as the unit, but write only the number.

Asked: survival at 120 h, 10 µM for CC(=O)Nc1ccc(OC(=O)CCCCC2CCSS2)cc1 (stereo unspecified) ?
Given back: 51

---

# Tested on: L02
# METHOD: Cytotoxicity against human LO2 cells assessed as reduction in cell survival after 24 hrs by MTT assay
# Type: cell-based
# RUN_PARAMETERS: L02, 24 h
pIC50: −log10 of the molar value.
EXPERIMENTAL_READOUT: pIC50

Asked: Name the reported pIC50 value associated with the molecule NC(=S)c1ccc(OC(=O)/C=C/c2ccccc2)cc1
Given back: < 3.10

Asked: Thanks! And NC(=S)c1ccc(OC(=O)c2ccc(Cl)cc2)cc1 ?
Given back: < 3.10

Asked: Okay, and CC(C(=O)Oc1ccc(C(N)=S)cc1)c1ccc(-c2ccccc2)c(F)c1 (stereo not drawn) ?
Given back: < 3.10
